Target: Histamine H2 receptor (Homo sapiens, UniProt P25021)
Sequence (P25021 whole entry): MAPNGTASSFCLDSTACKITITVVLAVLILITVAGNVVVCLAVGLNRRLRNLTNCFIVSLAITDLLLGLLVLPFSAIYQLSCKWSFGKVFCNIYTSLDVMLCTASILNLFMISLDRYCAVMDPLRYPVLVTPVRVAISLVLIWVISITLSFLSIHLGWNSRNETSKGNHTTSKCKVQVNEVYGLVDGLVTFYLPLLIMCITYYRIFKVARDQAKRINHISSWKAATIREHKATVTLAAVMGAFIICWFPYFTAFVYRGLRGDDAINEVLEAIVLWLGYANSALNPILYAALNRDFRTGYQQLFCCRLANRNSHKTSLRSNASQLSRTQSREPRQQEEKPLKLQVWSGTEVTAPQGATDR
Assay: Intrinsic agonist activity at human H2R-Gsalphas expressed in Sf9 cells by steady state GTPase activity assay relative to histamine
Format: functional
endpoint: Intrinsic activity
Enter a number only.

>>> df
                               smilesrecord  readoutnumber
0  N/C(=N\C(=O)CCCCC(=O)/N=C(\N)NCCCc1c[nH]cn1)NCCCc1c[nH]cn1           0.68
1  Cc1nc(N)sc1CCCN/C(N)=N/C(=O)CCCCCCC(=O)/N=C(\N)NCCCc1sc(N)nc1C           0.62
2  Cc1nc(N)sc1CCCN/C(N)=N/C(=O)CCCCCCCCC(=O)/N=C(\N)NCCCc1c[nH]cn1           0.76
3  N/C(=N\C(=O)CCCCCCCCC(=O)/N=C(\N)NCCCc1c[nH]cn1)NCCCc1c[nH]cn1           0.81

Read off the recorded Intrinsic activity for Cc1nc(N)sc1CCCN/C(N)=N/C(=O)CCCCCCCCCCCCCCC(=O)/N=C(\N)NCCCc1sc(N)nc1C
0.12

Look up Intrinsic activity of N/C(=N\C(=O)CCCCCCCCCCCCCCC(=O)/N=C(\N)NCCCc1cnc(N)s1)NCCCc1cnc(N)s1 and report it.
0.14

Return Intrinsic activity (reported value) for this compound: N/C(=N\C(=O)CCCCCCC(=O)/N=C(\N)NCCCc1c[nH]cn1)NCCCc1c[nH]cn1
0.77

Supply Intrinsic activity value. Item: N/C(=N\C(=O)CCCCCCCCC(=O)/N=C(\N)NCCCc1cnc(N)s1)NCCCc1cnc(N)s1
0.75

Fill in Intrinsic activity for record Cc1nc(N)sc1CCCN/C(N)=N/C(=O)CCCCCCCCCCC(=O)/N=C(\N)NCCCc1sc(N)nc1C
0.46

The measured values listed here are drawn from ChEMBL document CHEMBL2163257.
